experiment: Inhibition of human recombinant aldose reductase 2 after 15 mins by spectrophotometry analysis
Field: IC50. Provide a value for each of the molecules that follow.

Examples with answers:
CC(=O)Nc1cccc2c1c(Sc1ccc(Cl)cc1)c(C)n2CC(=O)O ... 2.51 µM
Cc1c(Sc2ccc(Cl)cc2)c2cc(-c3ccccc3)ccc2n1CC(=O)O ... 4.47 µM
Cc1c(Sc2ccc(Cl)cc2)c2c(Cl)cccc2n1CC(=O)O ... 5.01 µM
Cc1ccc2c(c1)c(Sc1ccc(S(C)(=O)=O)cc1)c(C)n2CC(=O)O ... > 10 µM
Cc1ccc2c(c1)c(S(=O)(=O)c1ccc(Cl)cc1)c(C)n2CC(=O)O ... 6.31 µM
CCS(=O)(=O)c1ccc(Oc2c(C)n(CC(=O)O)c3ccc(C(F)(F)F)cc23)cc1 ... > 10 µM
Cc1ccc2c(c1)c(Sc1ccccc1Cl)c(C)n2CC(=O)O ... 11.2 µM

Attention now turns to another entry.
So what's the measured IC50 for this one? Cc1c(Sc2ccc(Cl)cc2)c2cccc(Cl)c2n1CC(=O)O
11.2 µM

---

assay: Volume of distribution at steady state in Sprague-Dawley rat at 1 mg/kg, iv; type: ADME, organism-based; set-up: dose 1 mg/kg, route intravenous; conditions: in vivo, read-out: Vdss
measurementLabel: Vd (L/kg)
Answers are plain numbers, in L/kg.

Cc1c(Sc2ccc(Cl)cc2)c2c(NS(C)(=O)=O)cccc2n1CC(=O)O ... 1.1
Cc1c(Oc2ccc(Cl)cc2)c2c(NS(C)(=O)=O)cccc2n1CC(=O)O ... 1.7
CC(=O)Nc1cccc2c1c(S(=O)(=O)c1ccc(Cl)cc1)c(C)n2CC(=O)O ... 0.2

Attention now turns to another entry.
# input molecule: CC(=O)Nc1cccc2c1c(Sc1ccc(Cl)cc1)c(C)n2CC(=O)O ; wanted: its Vd
0.5

---

Target: Cytochrome P450 1A2 (Homo sapiens)
Sequence (P05177 whole entry): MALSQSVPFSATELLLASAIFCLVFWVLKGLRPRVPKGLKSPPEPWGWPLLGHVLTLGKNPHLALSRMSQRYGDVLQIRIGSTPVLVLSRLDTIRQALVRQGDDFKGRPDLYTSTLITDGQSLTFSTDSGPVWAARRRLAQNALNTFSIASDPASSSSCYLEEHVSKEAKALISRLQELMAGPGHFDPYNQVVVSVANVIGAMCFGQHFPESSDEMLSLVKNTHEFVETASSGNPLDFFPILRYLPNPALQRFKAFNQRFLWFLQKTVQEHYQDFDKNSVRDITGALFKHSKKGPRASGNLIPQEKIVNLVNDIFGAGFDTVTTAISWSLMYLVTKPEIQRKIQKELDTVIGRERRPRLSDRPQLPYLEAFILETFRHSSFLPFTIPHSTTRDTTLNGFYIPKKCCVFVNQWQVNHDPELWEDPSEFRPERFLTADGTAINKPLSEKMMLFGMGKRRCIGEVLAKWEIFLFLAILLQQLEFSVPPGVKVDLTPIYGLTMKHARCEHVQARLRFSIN
measurementLabel: IC50

Fill blank: measured IC50 of the compound CC(=O)Nc1cccc2c1c(Sc1ccc(Cl)cc1)c(C)n2CC(=O)O [AZD1981] is ____.
> 10 µM

---

assay: Lipophilicity, log D of the compound at pH 7.4; details: buffer
Class membership depends on logD alone; the intervals are lowest (below 0.1), middle (0.1 to below 0.9), highest (0.9 or more)

Illustrative cases are given below, each with its answer.
Cc1c(Sc2ccc(Cl)cc2)c2c(NS(C)(=O)=O)cccc2n1CC(=O)O ... middle
Cc1c(S(=O)(=O)c2ccc(Cl)cc2)c2c(NS(C)(=O)=O)cccc2n1CC(=O)O ... lowest
COc1ccc(Sc2c(C)n(CC(=O)O)c3ccc(C)cc23)cc1 ... highest
Cc1c(Sc2ccc(Cl)cc2)c2ccc(S(C)(=O)=O)cc2n1CC(=O)O ... middle
Cc1c(Oc2ccc(Cl)cc2)c2c(NS(C)(=O)=O)cccc2n1CC(=O)O ... lowest
CC(=O)Nc1cccc2c1c(Oc1ccc(Cl)cc1)c(C)n2CC(=O)O ... lowest
CC(=O)Nc1cccc2c1c(S(=O)(=O)c1ccc(Cl)cc1)c(C)n2CC(=O)O ... middle
Cc1c(Sc2ccc(Cl)cc2)c2cc(S(C)(=O)=O)ccc2n1CC(=O)O ... middle

Which class is correct for the following molecule? Cc1ccc2c(c1)c(Sc1ccc(S(C)(=O)=O)cc1)c(C)n2CC(=O)O
lowest

Bin this entry: Cc1c(Sc2ccc(Cl)cc2)c2c(-c3cnccn3)cccc2n1CC(=O)O
lowest

---

target: Cytochrome P450 3A4 (Homo sapiens, UniProt P08684); assay: Inhibition of CYP3A4; assay type: ADME
Sequence (P08684 whole entry): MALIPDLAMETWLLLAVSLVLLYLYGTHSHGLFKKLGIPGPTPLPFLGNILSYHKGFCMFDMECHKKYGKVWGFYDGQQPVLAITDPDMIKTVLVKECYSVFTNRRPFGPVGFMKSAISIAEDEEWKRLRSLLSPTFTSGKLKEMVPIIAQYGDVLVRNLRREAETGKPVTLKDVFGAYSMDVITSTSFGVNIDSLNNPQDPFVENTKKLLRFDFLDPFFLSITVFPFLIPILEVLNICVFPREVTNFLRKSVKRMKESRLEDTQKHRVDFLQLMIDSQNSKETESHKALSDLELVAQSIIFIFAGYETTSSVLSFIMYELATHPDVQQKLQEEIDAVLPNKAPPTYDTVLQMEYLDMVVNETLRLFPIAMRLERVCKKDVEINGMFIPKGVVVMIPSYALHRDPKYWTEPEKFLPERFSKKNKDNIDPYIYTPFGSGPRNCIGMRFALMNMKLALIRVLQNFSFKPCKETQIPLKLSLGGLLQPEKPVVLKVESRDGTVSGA
pIC50: −log10 of the molar value.
measurementLabel: pIC50

Cytochrome P450 3A4 (Homo sapiens, UniProt P08684) / pIC50 / CC(=O)Nc1cccc2c1c(Sc1ccc(Cl)cc1)c(C)n2CC(=O)O : value?
< 5.00

---

test: Intrinsic clearance in rat hepatocytes assessed as per 1 x 10^6 cells
measurementLabel: hepatocyte CLint (µL/min/1e6 cells)
Answers are plain numbers, in µL/min/1e6 cells.

Cc1c(Sc2ccc(Cl)cc2)c2c(-c3cnccn3)cccc2n1CC(=O)O ... 12

Kindly review the next compound as well.
Return reported hepatocyte CLint; argument: COc1ccc(Sc2c(C)n(CC(=O)O)c3ccc(C)cc23)cc1
24

---

Kindly supply the reported hepatocyte CLint values for the records listed here.
assay: Intrinsic clearance in rat hepatocytes assessed as per 1 x 10^6 cells
Give bare numbers, in µL/min/1e6 cells.

Provide the reported hepatocyte CLint of each entry below, same order.
1. Cc1c(Oc2ccc(Cl)cc2)c2c(NS(C)(=O)=O)cccc2n1CC(=O)O
2. Cc1ccc2c(c1)c(Sc1ccccc1Cl)c(C)n2CC(=O)O

[8, 24]

---

experiment: Intrinsic clearance in rat hepatocytes assessed as per 1 x 10^6 cells
Exercise: for every item that follows, state its recorded hepatocyte CLint.

Some solved entries appear below for comparison.
Cc1c(Sc2ccc(Cl)cc2)c2cc(Cl)c(C#N)cc2n1CC(=O)O ... 29 µL/min/1e6 cells
Cc1ccc2c(c1)c(Sc1ccc(S(C)(=O)=O)cc1)c(C)n2CC(=O)O ... 7 µL/min/1e6 cells
CC(=O)Nc1cccc2c1c(S(=O)(=O)c1ccc(Cl)cc1)c(C)n2CC(=O)O ... < 1 µL/min/1e6 cells
Cc1c(Sc2ccc(Cl)cc2)c2cc(F)ccc2n1CC(=O)O ... 19 µL/min/1e6 cells

// batch mode: one hepatocyte CLint value per listed entry
1. Cc1c(Sc2ccc(Cl)cc2)c2ccc(Cl)cc2n1CC(=O)O
2. Cc1ccc2c(c1)c(S(=O)(=O)c1ccccc1Cl)c(C)n2CC(=O)O
3. Cc1c(Sc2ccc(Cl)cc2)c2cccc(Cl)c2n1CC(=O)O
4. Cc1c(Sc2ccc(Cl)cc2)c2c(NS(C)(=O)=O)cccc2n1CC(=O)O

1. 64 µL/min/1e6 cells
2. 21 µL/min/1e6 cells
3. 75 µL/min/1e6 cells
4. 6 µL/min/1e6 cells

Please go through the list and note hepatocyte CLint for each compound.
1. CC(=O)Nc1cccc2c1c(Sc1ccc(Cl)cc1)c(C)n2CC(=O)O [AZD1981]
2. Cc1ccc2c(c1)c(Sc1cccc(Cl)c1)c(C)n2CC(=O)O

["1 µL/min/1e6 cells", "31 µL/min/1e6 cells"]

---

experiment: Lipophilicity, log D of the compound at pH 7.4; details: buffer
Kindly state logD for each of the entries shown.
One number for each entry.

Cc1c(Sc2ccc(Cl)cc2)c2c(S(C)(=O)=O)cccc2n1CC(=O)O ... 0.6
CC(=O)Nc1cccc2c1c(Sc1ccc(Cl)cc1)c(C)n2CC(=O)O ... -0.2
Cc1c(Sc2ccc(Cl)cc2)c2c(-c3ccccc3)cccc2n1CC(=O)O ... 2.6
COc1cccc(S(=O)(=O)c2c(C)n(CC(=O)O)c3ccc(C)cc23)c1 ... -0.4
Cc1c(Sc2ccc(Cl)cc2)c2c(C#N)c(Cl)ccc2n1CC(=O)O ... 1.6

For every item below, please supply its logD.
1. Cc1ccc2c(n1)c(Sc1ccc(Cl)cc1)c(C)n2CC(=O)O
2. Cc1c(Sc2ccc(Cl)cc2)c2cc(F)ccc2n1CC(=O)O
3. Cc1c(Oc2ccc(Cl)cc2)c2cc(F)ccc2n1CC(=O)O
4. Cc1c(Sc2ccc(Cl)cc2)c2cc(-c3ccccc3)ccc2n1CC(=O)O
5. Cc1c(F)ccc2c1c(Sc1ccc(Cl)cc1)c(C)n2CC(=O)O
6. Cc1c(Sc2ccc(Cl)cc2)c2cccc(Cl)c2n1CC(=O)O

1. 0.4
2. 1.8
3. 1.3
4. 3.7
5. 2.2
6. 2

---

Provide the recorded pIC50 for the entries that follow.
target: Aldehyde reductase AKR1A1 (Homo sapiens); experiment: Inhibition of human recombinant aldose reductase 1 after 15 mins by spectrophotometry analysis
One number for each entry, as −log10 of the molar value.

CCS(=O)(=O)c1ccc(Oc2c(C)n(CC(=O)O)c3ccc(C(F)(F)F)cc23)cc1 ... 5.40

Batch: pIC50 for all items listed.
1. Cc1c(Sc2ccc(Cl)cc2)c2cc(F)ccc2n1CC(=O)O
2. Cc1c(S(=O)(=O)c2ccc(Cl)cc2)c2c(NS(C)(=O)=O)cccc2n1CC(=O)O
3. COc1ccc(Sc2c(C)n(CC(=O)O)c3ccc(C)cc23)cc1

5.50
7.20
6.55
